system: BXPC-3; assay: cells; conditions: Homo sapiens, BXPC-3, 72 h
Description: Antiproliferative activity against human BXPC-3 cells assessed as cell viability incubated for 72 hrs by MTT assay
Assignment: determine reported IC50 for the given compounds.
The reply should be a number in nM, with the unit left off.

Request body: readout IC50, system BXPC-3, query CC(C(=O)N(C)c1ccc(N/C(=C2\C(=O)Nc3cc(Br)ccc32)c2ccccc2)cc1)N1CCC(N(C)C)CC1 (racemic) . Return the value.
1740

Request body: readout IC50, system BXPC-3, query "CN1CCN(CC(=O)N(C)c2ccc(N/C(=C3\C(=O)Nc4cc(Cl)ccc43)c3ccccc3)cc2)CC1" . Return the value.
2980

Request body: readout IC50, system BXPC-3, query CC(C(=O)N(C)c1ccc(N/C(=C2\C(=O)Nc3cc(Cl)ccc32)c2ccccc2)cc1)N1CCC(N(C)C)CC1 (racemic) . Return the value.
2040

Request body: readout IC50, system BXPC-3, query "COC(=O)c1ccc2c(c1)NC(=O)/C2=C(\Nc1ccc(N(C)C(=O)CN2CCC(N(C)C)CC2)cc1)c1ccccc1" . Return the value.
2560

Request body: readout IC50, system BXPC-3, query CC(C(=O)N(C)c1ccc(N/C(=C2\C(=O)Nc3cc(Br)ccc32)c2ccccc2)cc1)N1CCN(CCO)CC1 (racemic) . Return the value.
2310

Request body: readout IC50, system BXPC-3, query CCN1CCN(C(C)C(=O)N(C)c2ccc(N/C(=C3\C(=O)Nc4cc(Br)ccc43)c3ccccc3)cc2)CC1 (racemic) . Return the value.
2440

Request body: readout IC50, system BXPC-3, query CC(C(=O)N(C)c1ccc(N/C(=C2\C(=O)Nc3cc(Br)ccc32)c2ccccc2)cc1)N1CCN(C)CC1 (racemic) . Return the value.
1890

Request body: readout IC50, system BXPC-3, query COC(=O)c1ccc2c(c1)NC(=O)/C2=C(\Nc1ccc(N(C)C(=O)C(C)N2CCN(C)CC2)cc1)c1ccccc1 (racemic) . Return the value.
3740

Request body: readout IC50, system BXPC-3, query CC(C(=O)N(C)c1ccc(N/C(=C2\C(=O)Nc3cc(Cl)ccc32)c2ccccc2)cc1)N1CCN(C)CC1 (racemic) . Return the value.
1890

Request body: readout IC50, system BXPC-3, query COC(=O)c1ccc2c(c1)NC(=O)/C2=C(\Nc1ccc(N(C)C(=O)C(C)N2CCCN(C)CC2)cc1)c1ccccc1 (racemic) . Return the value.
1660

Request body: readout IC50, system BXPC-3, query "CN(C(=O)CN1CCC(N(C)C)CC1)c1ccc(N/C(=C2\C(=O)Nc3cc(Br)ccc32)c2ccccc2)cc1" . Return the value.
3020

###

assay: Oral bioavailability in Sprague-Dawley rat at 50 mg/kg; type: ADME, organism-based; settings: Sprague-Dawley, in vivo
metric name: bioavailability

Consider the compound shown here: CCN1CCN(C(C)C(=O)N(C)c2ccc(N/C(=C3\C(=O)Nc4cc(Cl)ccc43)c3ccccc3)cc2)CC1 (racemic) What is its recorded bioavailability?
6.53%

###

Assignment: determine reported pIC50 for the given compounds.
system: A549/TR; test: cells; details: Homo sapiens, 72 h
Description: Antiproliferative activity against human A549/Taxol cells assessed as cell viability incubated for 72 hrs by MTT assay
# log scale: pIC50 equals minus log10 of the concentration in mol/L

Consider the compound shown here: CCN1CCN(C(C)C(=O)N(C)c2ccc(N/C(=C3\C(=O)Nc4cc(Cl)ccc43)c3ccccc3)cc2)CC1 (racemic) What is its recorded pIC50?
5.32

Consider the compound shown here: "COC(=O)c1ccc2c(c1)NC(=O)/C2=C(\Nc1ccc(N(C)C(=O)CN2CCN(C)CC2)cc1)c1ccccc1" What is its recorded pIC50?
5.00

###

system: MDA-MB-231; experiment: cells; conditions: Homo sapiens, MDA-MB-231, 72 h
Description: Antiproliferative activity against human MDA-MB-231 cells assessed as cell viability incubated for 72 hrs by MTT assay
Rule: IC50 below 3 µM gives criterion met, anything at or above gives criterion not met.

Report whether reported IC50 is lower than 3 µM (strictly) for "CN1CCCN(CC(=O)N(C)c2ccc(N/C(=C3\C(=O)Nc4cc(Cl)ccc43)c3ccccc3)cc2)CC1"
criterion not met

Report whether reported IC50 is lower than 3 µM (strictly) for COC(=O)c1ccc2c(c1)NC(=O)/C2=C(\Nc1ccc(N(C)C(=O)C(C)N2CCN(CCO)CC2)cc1)c1ccccc1 (racemic)
criterion not met

Report whether reported IC50 is lower than 3 µM (strictly) for "CN(C(=O)CN1CCN(CCO)CC1)c1ccc(N/C(=C2\C(=O)Nc3cc(Cl)ccc32)c2ccccc2)cc1"
criterion met

Report whether reported IC50 is lower than 3 µM (strictly) for COC(=O)c1ccc2c(c1)NC(=O)/C2=C(\Nc1ccc(N(C)C(=O)C(C)N2CCOCC2)cc1)c1ccccc1 (racemic)
criterion not met

Report whether reported IC50 is lower than 3 µM (strictly) for COC(=O)c1ccc2c(c1)NC(=O)/C2=C(\Nc1ccc(N(C)C(=O)C(C)N2CCNCC2)cc1)c1ccccc1 (racemic)
criterion not met

Report whether reported IC50 is lower than 3 µM (strictly) for CCN1CCN(C(C)C(=O)N(C)c2ccc(N/C(=C3\C(=O)Nc4cc(Br)ccc43)c3ccccc3)cc2)CC1 (racemic)
criterion met

Report whether reported IC50 is lower than 3 µM (strictly) for CC(C(=O)N(C)c1ccc(N/C(=C2\C(=O)Nc3cc(Br)ccc32)c2ccccc2)cc1)N1CCN(CCO)CC1 (racemic)
criterion met

Report whether reported IC50 is lower than 3 µM (strictly) for CC(C(=O)N(C)c1ccc(N/C(=C2\C(=O)Nc3cc(Br)ccc32)c2ccccc2)cc1)N1CCCN(C)CC1 (racemic)
criterion met

Report whether reported IC50 is lower than 3 µM (strictly) for CC(C(=O)N(C)c1ccc(N/C(=C2\C(=O)Nc3cc(Cl)ccc32)c2ccccc2)cc1)N1CCSCC1 (racemic)
criterion not met

Report whether reported IC50 is lower than 3 µM (strictly) for "CCN1CCN(CC(=O)N(C)c2ccc(N/C(=C3\C(=O)Nc4cc(Br)ccc43)c3ccccc3)cc2)CC1"
criterion not met

Report whether reported IC50 is lower than 3 µM (strictly) for CCN1CCN(C(C)C(=O)N(C)c2ccc(N/C(=C3\C(=O)Nc4cc(C(=O)OC)ccc43)c3ccccc3)cc2)CC1 (racemic)
criterion not met

Report whether reported IC50 is lower than 3 µM (strictly) for CC(C(=O)N(C)c1ccc(N/C(=C2\C(=O)Nc3cc(Br)ccc32)c2ccccc2)cc1)N(C)CCN(C)C (racemic)
criterion not met

Report whether reported IC50 is lower than 3 µM (strictly) for CCN1CCN(C(C)C(=O)N(C)c2ccc(N/C(=C3\C(=O)Nc4cc(Cl)ccc43)c3ccccc3)cc2)CC1 (racemic)
criterion met

Report whether reported IC50 is lower than 3 µM (strictly) for CC(C(=O)N(C)c1ccc(N/C(=C2\C(=O)Nc3cc(Cl)ccc32)c2ccccc2)cc1)N1CCOCC1 (racemic)
criterion not met

###

tested on: MDA-MB-231; test: cells; settings: Homo sapiens, MDA-MB-231, 72 h
Assignment: determine reported pIC50 for the given compounds.
# log scale: pIC50 equals minus log10 of the concentration in mol/L

Consider the compound shown here: "CN1CCN(CC(=O)N(C)c2ccc(N/C(=C3\C(=O)Nc4cc(Cl)ccc43)c3ccccc3)cc2)CC1" What is its recorded pIC50?
5.34

Consider the compound shown here: "CN(C)CCN(C)CC(=O)N(C)c1ccc(N/C(=C2\C(=O)Nc3cc(Br)ccc32)c2ccccc2)cc1" What is its recorded pIC50?
5.30

Consider the compound shown here: COC(=O)c1ccc2c(c1)NC(=O)/C2=C(\Nc1ccc(N(C)C(=O)C(C)N(C)CCN(C)C)cc1)c1ccccc1 (racemic) What is its recorded pIC50?
5.22

###

Assignment: determine reported IC50 for the given compounds.
system: BXPC-3; assay: cells; details: Homo sapiens, BXPC-3, 72 h

Consider the compound shown here: "CN1CCCN(CC(=O)N(C)c2ccc(N/C(=C3\C(=O)Nc4cc(Cl)ccc43)c3ccccc3)cc2)CC1" What is its recorded IC50?
3140 nM

Consider the compound shown here: COC(=O)c1ccc2c(c1)NC(=O)/C2=C(\Nc1ccc(N(C)C(=O)C(C)N2CCC(N(C)C)CC2)cc1)c1ccccc1 (racemic) What is its recorded IC50?
1690 nM

Consider the compound shown here: CC(C(=O)N(C)c1ccc(N/C(=C2\C(=O)Nc3cc(Br)ccc32)c2ccccc2)cc1)N1CCCN(C)CC1 (racemic) What is its recorded IC50?
1950 nM

Consider the compound shown here: CC(C(=O)N(C)c1ccc(N/C(=C2\C(=O)Nc3cc(Cl)ccc32)c2ccccc2)cc1)N1CCOCC1 (racemic) What is its recorded IC50?
> 10000 nM

###

test: Cytotoxicity against mouse NIH/3T3 cells assessed as cell viability incubated for 72 hrs by MTT assay; type: toxicity, cell-based, NIH3T3
metric name: IC50 at 72 h

Consider the compound shown here: CC(C(=O)N(C)c1ccc(N/C(=C2\C(=O)Nc3cc(Cl)ccc32)c2ccccc2)cc1)N1CCOCC1 (racemic) What is its recorded IC50 at 72 h?
> 10000 nM

Consider the compound shown here: COC(=O)c1ccc2c(c1)NC(=O)/C2=C(\Nc1ccc(N(C)C(=O)C(C)N2CCCN(C)CC2)cc1)c1ccccc1 (racemic) What is its recorded IC50 at 72 h?
2930 nM

Consider the compound shown here: COC(=O)c1ccc2c(c1)NC(=O)/C2=C(\Nc1ccc(N(C)C(=O)C(C)N2CCNCC2)cc1)c1ccccc1 (racemic) What is its recorded IC50 at 72 h?
> 10000 nM

Consider the compound shown here: CC(C(=O)N(C)c1ccc(N/C(=C2\C(=O)Nc3cc(Cl)ccc32)c2ccccc2)cc1)N1CCCN(C)CC1 (racemic) What is its recorded IC50 at 72 h?
2200 nM

Consider the compound shown here: COC(=O)c1ccc2c(c1)NC(=O)/C2=C(\Nc1ccc(N(C)C(=O)C(C)N2CCSCC2)cc1)c1ccccc1 (racemic) What is its recorded IC50 at 72 h?
> 10000 nM

Consider the compound shown here: "CN1CCCN(CC(=O)N(C)c2ccc(N/C(=C3\C(=O)Nc4cc(Br)ccc43)c3ccccc3)cc2)CC1" What is its recorded IC50 at 72 h?
5980 nM

Consider the compound shown here: CC(C(=O)N(C)c1ccc(N/C(=C2\C(=O)Nc3cc(Br)ccc32)c2ccccc2)cc1)N1CCC(N(C)C)CC1 (racemic) What is its recorded IC50 at 72 h?
1590 nM
